Sourced from patent US20250041312A1

Assay: SAD study in healthy volunteers: PK in plasma, whole blood, red blood cells
Type: in vivo, human
Settings: human, whole blood, 400 mg, HV single 400 mg; whole blood; mean; read-out: AUC0-t
QUANTITY: AUC(0-t)

Measured AUC(0-t) of O=Cc1c(O)cccc1OC[C@@H]1COCCN1C(=O)c1cccnc1CCO : 61900 µg·h/mL

====

Experiment: SAD study in healthy volunteers: PK in plasma, whole blood, red blood cells
Assay type: in vivo, human
Settings: human, red blood cells and plasma, HV, dose range of 50 to 2200 mg; read-out: mean RBC to plasma ratio for Cmax
Experimental: To evaluate the safety and tolerability of single ascending doses of Compound I, 48 healthy volunteers (42 in the fasted state and 6 in the fed state) aged 18 to 55 years old were administered single ascending doses (50 mg to 2200 mg) of Compound I, while 16 healthy volunteers (14 in the fasted state and 2 in the fed state) aged 18 to 55 years old were administered placebo in a double blind, randomized, sequential manner. […]
QUANTITY: Kp

Noted for O=Cc1c(O)cccc1OC[C@@H]1COCCN1C(=O)c1cccnc1CCO [Compound I] : its Kp reads 49 to 99

====

Experiment: SAD study in healthy volunteers: PK in plasma, whole blood, red blood cells
Assay type: in vivo, human
Settings: human, red blood cells, po, 100 mg, HV single oral 100 mg (Cohort 2); red blood cells (calculated conc.); geometric mean; read-out: t1/2 (converted)
QUANTITY: half-life (days)
Kindly answer with a numeric value in days, unit omitted.

So, O=Cc1c(O)cccc1OC[C@@H]1COCCN1C(=O)c1cccnc1CCO ? Its half-life was 29

====

Test: SAD study in healthy volunteers: PK in plasma, whole blood, red blood cells
Type: in vivo, human
Settings: human, whole blood, po, 100 mg, HV single oral 100 mg (Cohort 2); geometric mean
QUANTITY: Cmax (ng/mL)
API: value field is a number in ng/mL; no unit string.

Entry under test: O=Cc1c(O)cccc1OC[C@@H]1COCCN1C(=O)c1cccnc1CCO . Its Cmax was 17300

====

Test: MAD study in healthy volunteers: whole blood and plasma PK
Assay type: in vivo, human
Settings: human; HV MAD Day 14, 15 mg QD maintenance; plasma; read-out: AUC0-24
QUANTITY: AUC(0-t) (ng·h/mL)
Expressed in ng·h/mL, but write only the number.

According to the records, this molecule O=Cc1c(O)cccc1OC[C@@H]1COCCN1C(=O)c1cccnc1CCO displays AUC(0-t) of 15600

====

Assay: MAD study in healthy volunteers: whole blood and plasma PK
Format: in vivo, human
Conditions: human; HV MAD Day 14, 15 mg QD maintenance; plasma; median
QUANTITY: Tmax (h)
Give the quantity in h, number only.

Entry under test: O=Cc1c(O)cccc1OC[C@@H]1COCCN1C(=O)c1cccnc1CCO . Its Tmax was 1

====

Test: SAD study in healthy volunteers: PK in plasma, whole blood, red blood cells
Format: in vivo, human
Conditions: human, whole blood, 50 mg, HV single 50 mg; whole blood; mean; read-out: AUC0-t
QUANTITY: AUC(0-t) (µg·h/mL)
Respond numerically; units are µg·h/mL and should not be typed.

AUC(0-t) in this record for O=Cc1c(O)cccc1OC[C@@H]1COCCN1C(=O)c1cccnc1CCO [Compound I] : 6900

====

Assay: SAD study in healthy volunteers: PK in plasma, whole blood, red blood cells
Type: in vivo, human
Details: human; HV single oral 200 mg (Cohort 3); red blood cells (calculated conc.); geometric mean
QUANTITY: AUC(0-inf) (µg·h/mL)
Field format: number, assumed µg·h/mL, no unit text.

For O=Cc1c(O)cccc1OC[C@@H]1COCCN1C(=O)c1cccnc1CCO the molecule record lists AUC(0-inf) as 71200
